# Test system: CDKL1
# ASSAY CONTEXT: concentration: 1 μM, replicates: in singlicate; n = 1;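 further: KINOMEscan kinase panel screen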
Listed here are molecules together with their documented %Inh.
PROPERTY LABEL: %Inh

[
  {
    "MOLECULE": "O=C(NC1CCN(c2ccnc(Nc3ccc(F)cc3)n2)C1)c1cc2ccccc2s1 (stereo not drawn) [GSK1379716]",
    "TEST VALUE": "0%"
  },
  {
    "MOLECULE": "CCc1ccc(-c2ccc3c(c2)-c2c(cnn2C)S(=O)(=O)N3C)cc1",
    "TEST VALUE": "0%"
  },
  {
    "MOLECULE": "Cn1cc(-c2ccc3c(c2)CCN3C(=O)Cc2cccc(Cl)c2)c2c(N)ncnc21 [GSK2606590]",
    "TEST VALUE": "0%"
  },
  {
    "MOLECULE": "COc1cc(Nc2ncc3c(C)nc(-c4cc5ccccc5[nH]4)n3n2)cc(OC)c1OC [GW869516]",
    "TEST VALUE": "46%"
  },
  {
    "MOLECULE": "O=C(Nc1cccc(-c2nn3ccccc3c2-c2ccnc(Nc3cccc(F)c3)n2)c1)c1c(F)ccc(F)c1Cl [GSK357952]",
    "TEST VALUE": "15%"
  },
  {
    "MOLECULE": "Cl.NC(=O)c1cccc(Nc2nccc(Nc3ccc(Oc4c(Cl)cccc4Cl)c(Cl)c3)n2)c1 [GW659009]",
    "TEST VALUE": "0%"
  }
]

----------
# Test system: IRAK4
# ASSAY CONTEXT: concentration: 1 μM, replicates: in singlicate; n = 1
Listed here are compounds together with their documented %Inh.

[
  {
    "COMPOUND": "O=C(Nc1cccc(-c2nn3ncccc3c2-c2ccnc(Nc3ccccc3)n2)c1)c1c(F)cccc1F",
    "SCALE UNIT": "%",
    "%Inh": 11
  },
  {
    "COMPOUND": "Cl.Cl.NCC(C(=O)Nc1cc(Br)c(-c2ccnc3[nH]ccc23)s1)c1ccccc1 (stereo not drawn)",
    "SCALE UNIT": "%",
    "%Inh": 26
  },
  {
    "COMPOUND": "COc1cccc(-c2ccc3c(NC(=O)C4CC4)n[nH]c3n2)c1",
    "SCALE UNIT": "%",
    "%Inh": 27
  },
  {
    "COMPOUND": "O=C(Nc1ccccc1F)NC1CCN(c2ccnc(Nc3ccc(F)cc3)n2)CC1",
    "SCALE UNIT": "%",
    "%Inh": 5
  },
  {
    "COMPOUND": "Cl.Cl.NCC(NC(=O)c1cc(-c2ccccc2)c(-c2ccnc3[nH]ccc23)s1)c1ccccc1 (stereo not drawn)",
    "SCALE UNIT": "%",
    "%Inh": 0
  },
  {
    "COMPOUND": "CC(=O)Nc1nc2cnc(Nc3cc(NC(=O)c4cccc(C5(C#N)CC5)c4Cl)ccc3C)nc2s1",
    "SCALE UNIT": "%",
    "%Inh": 21
  },
  {
    "COMPOUND": "CC(C)c1nc(-c2cccc(NS(=O)(=O)c3c(F)cccc3F)c2F)c(-c2ccnc(Nc3ccc(N4CCOCC4)nc3)n2)s1",
    "SCALE UNIT": "%",
    "%Inh": 10
  },
  {
    "COMPOUND": "O=C(Nc1n[nH]c2cc(-c3ccoc3)ccc12)C1CC1",
    "SCALE UNIT": "%",
    "%Inh": 0
  },
  {
    "COMPOUND": "CN1CCN(Cc2cccc(-c3ccc4c(Nc5ccc(Oc6ccccc6)cc5)ccnc4c3)c2)CC1",
    "SCALE UNIT": "%",
    "%Inh": 0
  }
]
